Tested on: DMS-114
Test Details: NCI tumour cell line growth inhibition, 48 h
Active and inactive are the calls of the source. No stated cut-off is given here; in the data, active = GI50 up to about 1.1 µM and inactive = higher.
Would you mind answering with one of these outcomes? active, inactive

Reference set (4 entries):
Molecule: N#C/C(=C\c1ccc2ccccc2c1)C(=O)c1ccccc1
Class: inactive

Molecule: NC(=O)Nc1cc(O)ccc1/N=N/c1ccc(S(=O)(=O)Nc2ccccn2)cc1
Class: inactive

Molecule: CC(=O)OC1CC2C(C)(C)OC(=O)CC(OC(C)=O)[C@]2(C)C2CCC3(C)C(=CCC3[C@H]3COC(=O)C3)[C@]12C (stereo partly drawn)
Class: inactive

Molecule: CCN(CC)[C@@H]1c2cc3c(cc2C(c2cc(OC)c(O)c(OC)c2)C2C(=O)CO[C@@H]21)OCO3 (stereo partly drawn)
Class: inactive

*Q* // return assay outcome for Cc1c(C)c([N+](=O)[O-])c2c(c1N)C(=O)c1ccccc1C2=O
*A* inactive

*Q* Please answer likewise for O=C1c2cccc3cc4ccccc4c(c23)C(=O)N1CCNCCN1C(=O)c2cccc3cc4ccccc4c(c23)C1=O
*A* active

*Q* Please answer likewise for CCOC(=O)CNC(=O)N(CC)C12CC3CC(CC(C3)C1)C2
*A* inactive

*Q* Please answer likewise for CC(=O)O[C@]12CCCC1C1(O)C(O)CCCC12 (stereo partly drawn)
*A* inactive

*Q* Please answer likewise for COc1c(C)cc(O)cc1C=O
*A* inactive

*Q* Please answer likewise for Cc1cc(NS(=O)(=O)c2ccc(Nc3c4ccccc4nc4c(C(=O)N5CCN(CCO)CC5)ccc(Cl)c34)cc2)no1
*A* inactive

*Q* Please answer likewise for Oc1ncnc2c1sc(=S)n2-c1ccccc1
*A* inactive

*Q* Please answer likewise for CCC1C[N+]23CCc4c([nH]c5ccccc45)C2CC1CC3 (stereo not drawn)
*A* inactive

*Q* Please answer likewise for N=C(N)NS(=O)(=O)c1ccc(NC(=O)c2ccc(Cl)c3c(Nc4ccc(S(=O)(=O)N=C(N)N)cc4)c4ccccc4nc23)cc1
*A* inactive

Cited source: ChEMBL document CHEMBL1201862
